B1: library; numbered along this chain (parent)
chain: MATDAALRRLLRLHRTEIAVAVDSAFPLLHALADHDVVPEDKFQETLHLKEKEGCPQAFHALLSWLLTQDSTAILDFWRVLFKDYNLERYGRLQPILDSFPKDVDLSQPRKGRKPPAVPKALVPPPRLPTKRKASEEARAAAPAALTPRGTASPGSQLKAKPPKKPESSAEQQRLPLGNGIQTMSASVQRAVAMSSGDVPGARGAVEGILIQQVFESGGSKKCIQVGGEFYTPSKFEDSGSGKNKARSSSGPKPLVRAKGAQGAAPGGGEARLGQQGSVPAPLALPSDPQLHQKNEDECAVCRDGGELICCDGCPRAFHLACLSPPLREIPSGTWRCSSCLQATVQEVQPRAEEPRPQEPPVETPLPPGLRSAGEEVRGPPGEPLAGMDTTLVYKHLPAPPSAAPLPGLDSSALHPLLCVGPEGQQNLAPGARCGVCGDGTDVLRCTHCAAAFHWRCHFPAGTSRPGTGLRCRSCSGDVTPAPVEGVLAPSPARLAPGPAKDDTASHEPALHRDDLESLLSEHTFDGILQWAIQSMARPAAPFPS

variants of: B1; assay: AIRE transcriptional activation functional score (insulin promoter-GFP; nonsense median 0, synonymous median 1) (normalised score); higher = higher AIRE activity (more reporter activation); conditions: with insulin promoter-GFP reporter in HEK293
Recorded AIRE transcriptional activation functional score by entry
Experimental readout: AIRE transcriptional activation functional score

>>> observed_result("L13Y")
1.42
>>> observed_result("P101R")
0.861
>>> observed_result("A386N")
0.757
>>> observed_result("A5W")
0.849
>>> observed_result("P143A")
1.18
>>> observed_result("V192T")
0.917
>>> observed_result("A31I")
0.231
>>> observed_result("L320M")
1.03
>>> observed_result("C302V")
0.651
>>> observed_result("S239N")
1.4
>>> observed_result("A205G")
0.764
>>> observed_result("P154I")
1.59
>>> observed_result("C475T")
0.102
>>> observed_result("T3I")
-0.128
>>> observed_result("S64M")
-0.0813
>>> observed_result("R445E")
0.42
>>> observed_result("A5H")
0.534
>>> observed_result("G201Y")
1.17
>>> observed_result("S234D")
-0.22
>>> observed_result("A271I")
1.1
>>> observed_result("A284R")
1.12
>>> observed_result("R303C")
1.23

The origin of these recorded values is the supplement of paper PMC12667976.
